Measured IC50 accompanies every entry in the list below.
system: AXL (Homo sapiens, UniProt P30530)
Sequence (P30530 26-894): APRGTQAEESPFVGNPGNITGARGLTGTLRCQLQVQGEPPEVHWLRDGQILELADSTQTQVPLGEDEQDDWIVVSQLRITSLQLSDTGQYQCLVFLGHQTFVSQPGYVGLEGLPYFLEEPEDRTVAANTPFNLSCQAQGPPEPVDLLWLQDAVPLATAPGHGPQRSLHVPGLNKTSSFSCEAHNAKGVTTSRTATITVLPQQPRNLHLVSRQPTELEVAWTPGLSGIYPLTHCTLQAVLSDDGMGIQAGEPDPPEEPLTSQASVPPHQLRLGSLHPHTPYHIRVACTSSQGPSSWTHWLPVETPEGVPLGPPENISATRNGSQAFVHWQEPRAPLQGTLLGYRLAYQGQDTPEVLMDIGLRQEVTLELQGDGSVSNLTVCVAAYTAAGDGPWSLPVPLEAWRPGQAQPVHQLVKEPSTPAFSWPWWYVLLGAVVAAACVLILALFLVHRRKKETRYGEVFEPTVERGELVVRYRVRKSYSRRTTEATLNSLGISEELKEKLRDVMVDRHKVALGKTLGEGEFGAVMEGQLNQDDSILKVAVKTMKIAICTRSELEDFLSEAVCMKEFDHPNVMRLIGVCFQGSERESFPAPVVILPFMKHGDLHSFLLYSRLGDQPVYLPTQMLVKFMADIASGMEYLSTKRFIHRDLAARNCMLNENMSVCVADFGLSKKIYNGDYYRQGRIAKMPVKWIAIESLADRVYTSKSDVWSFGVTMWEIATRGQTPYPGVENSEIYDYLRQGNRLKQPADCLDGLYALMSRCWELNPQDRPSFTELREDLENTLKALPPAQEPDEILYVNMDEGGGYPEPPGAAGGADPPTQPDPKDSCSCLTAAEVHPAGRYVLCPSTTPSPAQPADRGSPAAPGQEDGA

molecule: Cc1cc(Cl)ccc1Nc1ncc2c(OC3CCNCC3)ncc([C@H]3CC[C@H](O)CC3)c2n1
system: AXL (Homo sapiens, UniProt P30530)
property label: IC50
test value: 1000 to 10000 nM
--
molecule: COC[C@H](C)Nc1ncc2c(OC3CCOCC3)ncc([C@H]3CC[C@H](O)CC3)c2n1
system: AXL (Homo sapiens, UniProt P30530)
property label: IC50
test value: 100 to 1000 nM
--
molecule: CN(C)S(=O)(=O)c1cccc(-c2cnc(OC3CCOCC3)c3cnc(NC4(C)CC4)nc23)c1
system: AXL (Homo sapiens, UniProt P30530)
property label: IC50
test value: 100 to 1000 nM

IC50 lookup needed for CCCC(C)Nc1ncc2c(=O)n(C3CCN(S(C)(=O)=O)CC3)cc([C@H]3CC[C@@H](O)CC3)c2n1 (stereo partly shown) , thanks. 100 to 1000 nM

====

system: MERTK (Homo sapiens, UniProt Q12866)
Sequence (Q12866 21-999): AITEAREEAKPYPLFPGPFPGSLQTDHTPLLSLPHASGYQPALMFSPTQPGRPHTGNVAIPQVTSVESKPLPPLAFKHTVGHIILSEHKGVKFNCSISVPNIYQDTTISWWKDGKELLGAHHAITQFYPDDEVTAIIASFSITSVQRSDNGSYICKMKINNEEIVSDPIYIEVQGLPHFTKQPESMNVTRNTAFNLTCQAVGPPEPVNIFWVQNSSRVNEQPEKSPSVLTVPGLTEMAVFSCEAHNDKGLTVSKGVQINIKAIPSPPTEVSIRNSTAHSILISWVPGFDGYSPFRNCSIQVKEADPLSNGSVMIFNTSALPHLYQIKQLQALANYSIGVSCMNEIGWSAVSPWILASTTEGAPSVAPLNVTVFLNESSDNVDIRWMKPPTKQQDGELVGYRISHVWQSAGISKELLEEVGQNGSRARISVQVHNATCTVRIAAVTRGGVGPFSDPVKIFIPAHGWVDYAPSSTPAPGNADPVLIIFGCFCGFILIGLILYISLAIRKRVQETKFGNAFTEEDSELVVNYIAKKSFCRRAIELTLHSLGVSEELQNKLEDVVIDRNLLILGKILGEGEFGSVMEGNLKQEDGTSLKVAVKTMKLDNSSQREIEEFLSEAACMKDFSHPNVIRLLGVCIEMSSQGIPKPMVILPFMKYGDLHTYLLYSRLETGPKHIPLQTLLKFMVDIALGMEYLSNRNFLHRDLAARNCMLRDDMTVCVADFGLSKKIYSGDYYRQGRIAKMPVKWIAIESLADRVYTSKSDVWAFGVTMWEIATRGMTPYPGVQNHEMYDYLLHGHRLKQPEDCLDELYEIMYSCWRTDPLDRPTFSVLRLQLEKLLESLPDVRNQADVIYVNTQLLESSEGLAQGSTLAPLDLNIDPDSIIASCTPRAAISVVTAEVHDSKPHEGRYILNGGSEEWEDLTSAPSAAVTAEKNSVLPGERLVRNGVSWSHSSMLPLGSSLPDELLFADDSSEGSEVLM
assay summary: TR-FRET kinase activity assay, MERTK
Assay type: biochemical
stated conditions: ratio calculated as FLT3 IC50/Mer IC50

compound: COC[C@H](C)Nc1ncc2c(OC3C[C@@H](C)N(C)[C@@H](C)C3)ncc([C@H]3CC[C@H](O)CC3)c2n1 (some centres unmarked)
Mer/Flt3 ratio (FLT3 IC50/Mer IC50): +++ (a ratio of >100)

compound: CCC(C)Nc1ncc2c(OC3CCOCC3)ncc([C@H]3CC[C@H](O)CC3)c2n1 (some centres unmarked)
Mer/Flt3 ratio (FLT3 IC50/Mer IC50): +++ (a ratio of >100)

compound: CC[C@H](C)Nc1ncc2c(OC3CCN(C)CC3)ncc([C@H]3CC[C@H](O)CC3)c2n1 [Compound 221]
Mer/Flt3 ratio (FLT3 IC50/Mer IC50): +++ (a ratio of >100)

====

The next entries give measured pIC50 for AXL (Homo sapiens).
pIC50: −log10 of the molar value. Counter-ions that a name gives are not always drawn.

Before answering, review these 3 worked examples.
molecule: CNC(=O)c1ccc(Nc2ncc3c(OC4CCOCC4)ncc([C@H]4CC[C@H](O)CC4)c3n2)cc1
property label: pIC50
test value: 6.00 to 7.00

molecule: COC[C@H](C)Nc1ncc2c(OC3CCOCC3)ncc(-c3ccc(S(C)(=O)=O)cc3)c2n1
property label: pIC50
test value: 5.00 to 6.00

molecule: CCCC(C)Nc1ncc2c(=O)n(C3CCN(C(C)=O)CC3)cc([C@H]3CC[C@H](O)CC3)c2n1 (stereo partly shown) [Compound 128, hydrochloride]
property label: pIC50
test value: 6.00 to 7.00

Continue with the molecule presented below.
pIC50 lookup needed for "O[C@H]1CC[C@H](c2cnc(OC3CCNCC3)c3cnc(N[C@@H]4CCCOC4)nc32)CC1" , thanks. 6.00 to 7.00

====

system: MERTK (Homo sapiens, UniProt Q12866)
assay summary: TR-FRET kinase activity assay, MERTK
Format: biochemical
stated conditions: ratio calculated as FLT3 IC50/Mer IC50
Procedure: IC50 values for compound inhibition of AXL, FLT3, MERTK and TYRO3 activity were determined using a TR-FRET activity assay. […] Activity assays were performed in a 384-well, small volume, black microplates in an active enzyme volume of 10 uL and final developed volume of 20 uL. […] Plates are read in a PHERASTAR® plate reader. Data are analyzed in GraphPad PRISM.

test smiles: COC[C@H](C)Nc1ncc2c(OC3CCOCC3)ncc(-c3ccc(N)nc3)c2n1
Mer/Flt3 ratio (FLT3 IC50/Mer IC50): +++ (a ratio of >100)
//
test smiles: COC[C@H](C)Nc1ncc2c(O[C@@H]3CCOC3)ncc([C@H]3CC[C@H](O)CC3)c2n1
Mer/Flt3 ratio (FLT3 IC50/Mer IC50): +++ (a ratio of >100)
//
test smiles: C[C@@H](CC(F)(F)F)Nc1ncc2c(O[C@H]3C[C@@H](O)C3)ncc([C@H]3CC[C@](C)(O)CC3)c2n1
Mer/Flt3 ratio (FLT3 IC50/Mer IC50): +++ (a ratio of >100)
